# experimentalDetails: NCI Yeast Anticancer Drug Screen. Data for the cln2 rad14 strain (AID 165);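 also: 0% = growth equal to vehicle treated cultures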
# conditionDetails: S. cerevisiae cln2 rad14 strain, at 50.0 µM, hits give high values
About 79,000 compounds went through this panel and 15% of them were active in at least one assay; those are over-represented in the sample as a whole.
readoutKind: growth inhibition (%)
# output: bare number, implied unit %

# example entries with known answers
compound	readoutValue
NCC(O)CN	-8.2
CC1(C)[C@@H]2CC[C@](C)(O)[C@H]1C2	8.5

Q: // growth inhibition lookup, key: c1ccc(CNCCN(Cc2ccccc2)Cc2ccccc2)cc1
A: -11.8

Q: Given the compound O=C(CC1Sc2ccccc2NC1=O)NNc1c(Cl)cc(Cl)cc1Cl (centres undefined) , what is its reported growth inhibition?
A: 17.3

* * *

Catalogue of growth inhibition values
# experimentalDetails: NCI Yeast Anticancer Drug Screen. Data for the rad50 strain (AID 155);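 also: 0% = growth of vehicle-only cultures of the same strain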
# conditionDetails: S. cerevisiae rad50 strain growth inhibition; at 50.0 µM; hits give high values
The panel holds about 79,000 compounds, 15% with a hit somewhere; the sample as a whole holds those more often. Calls of active or inactive are those of the source. Cut-off read from the data, not from the text of the source: active = growth inhibition above about 70%; inactive = the rest.

compound	readoutKind	readoutValue
CC(=O)OC(C(=O)Nc1ncccn1)c1ccccc1 (stereo not drawn)	growth inhibition	-4.7% (inactive)

Q: Need growth inhibition of COC1OC(CO)C(OC(C)=O)C(OC(C)=O)C1OC(C)=O (stereo not drawn) , thanks.
A: -2.05% (inactive)

Q: Need growth inhibition, item C=CCNC(=O)C[n+]1cccc(C(=O)Nc2ccccc2)c1
A: 1.65% (inactive)

* * *

# experimentalDetails: NCI Yeast Anticancer Drug Screen. Data for the sgs1 mgt1 strain (AID 161);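 also: 0% = growth of cultures given vehicle only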
# conditionDetails: S. cerevisiae sgs1 mgt1 strain, at 50.0 µM
The panel holds about 79,000 compounds, 15% with a hit somewhere; the sample as a whole holds those more often. Active and inactive are the calls of the source. Cut-off read from the data, not from the text of the source: active = growth inhibition above about 70%; inactive = the rest.
Give one outcome, nothing more. List: 1 (yes) for active, 0 (no) for inactive

Study these solved cases before continuing.
compound	discreteLabel
CSC(=Nc1ccc(Br)cc1)NC(=O)c1cc([N+](=O)[O-])cc([N+](=O)[O-])c1	0 (no)
O=C(COc1cccc(Cl)c1)Nc1cccc(S(=O)(=O)O)c1 (tested in a mixture with another compound)	0 (no)
Cc1ccc2[nH]c(=O)[nH]c2c1	0 (no)
CN1C(=O)C(Cl)(C#N)C(c2ccccc2)N(C)C1c1ccccc1 (configuration not stated)	0 (no)
CC#CC(O)(C(=O)OCCCN(C)C)C1CCCCC1 (configuration not stated)	0 (no)

Q: How did this test come out for Cc1ccc(C(=O)c2c[nH]c(=O)[nH]c2=O)cc1 ?
A: 0 (no)

Q: Which outcome did this test record for the compound CC(C)(C)C1=CC(=O)C(C#N)(C(C)(C)C)C1=O (configuration not stated) ?
A: 0 (no)

* * *

# experimentalDetails: NCI Yeast Anticancer Drug Screen. Data for the cln2 rad14 strain (AID 165);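 also: 0% = growth equal to vehicle treated cultures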
# conditionDetails: S. cerevisiae cln2 rad14 strain, at 50.0 µM, hits give high values
This is part of a sample that, as a whole, favours compounds with a hit. Of some 79,000 tested, about 15% had one in any assay. Active and inactive are the calls of the source. No stated cut-off is given here; in the data, active means growth inhibition above about 70%; inactive means the rest.
Measured growth inhibition, listed per entry for reference.

Record excerpt, results attached:
molecule	growth inhibition
Cc1nc(N)[nH]c(=O)c1-n1nnc2ccccc2c1=O	-2.1% (inactive)
N#CNC(=Nc1ccccc1)[N](C#N)[Sn]([c]1ccccc1)([c]1ccccc1)[c]1ccccc1	98.7% (active)
CN(C)CSCCO	-14.8% (inactive)
COc1ccc2cc1Oc1ccc(cc1)CC1c3cc(c(OC)cc3CCN1C)Oc1c3c(cc4c1C(C2)N(C)CC4)OCO3 (stereo unspecified)	4.65% (inactive)
ON(CCc1ccncc1)Cc1ccccc1	2.95% (inactive)
CCOC(=O)C1=C(C(=O)c2ccccc2)C(c2ccc([N+](=O)[O-])cc2)C(C(=O)c2ccccc2)=C(C(=O)OCC)N1	14.2% (inactive)
[Cl][Pt+2][Cl].[NH-]CC1([NH-])CCCCC1	-2.8% (inactive)
CSCC[C@H]1C(=O)N=C(N)N1C(=O)OCc1ccccc1	-9.6% (inactive)
O=C(O)c1c(Cl)c(Cl)c(Cl)c(Cl)c1C(=O)Nc1ccccc1F	-118% (inactive)
C/C(=C\c1ccccc1)C(=O)c1c(C)cc(C)cc1C	-0.2% (inactive)

Q: Look up growth inhibition: COc1cccc(/C=C/S(=O)(=O)Cc2ccccc2)c1OC
A: 23.4% (inactive)

Origin of the recorded values: PubChem BioAssay (NCI)
